Target: HLA-B*40:02
Assay: IEDB peptide-MHC binding, purified MHC/competitive/radioactivity; filed as Kd, often an IC50 or EC50 that approximates it; bounds were set here for any values at or beyond the usual limits of such assays
Conditions: source organism: Mammarenavirus machupoense
measurement_name: pKd
Answers are plain numbers, as −log10 of the molar value.

Would you kindly share the measured pKd for `TEFQSVTFTM` ?
6.90

---

Molecular target: HLA-B*15:01
Assay: IEDB peptide-MHC binding, purified MHC/direct/fluorescence; filed as Kd, often an IC50 or EC50 that approximates it; bounds were set here for any values at or beyond the usual limits of such assays
Conditions: source organism: Yersinia pestis
measurement_name: pKd
Give bare numbers, as −log10 of the molar value.

Would you kindly share the measured pKd for `LLIDDSFSS` ?
5.72
